test system: Trypanosoma brucei brucei; assay: Trypanocidal activity against bloodstream form of Trypanosoma brucei brucei 427 after 72 hrs by Alamar blue assay; format: functional, organism-based; conditions: Trypanosoma brucei, 427, 72 h
pEC50: −log10 of the molar value.
Note to self: values exactly at 7 are Yes. So pEC50 at or above 7 is Yes, below is No.

Past entries and their recorded results:
>>> df
                                 mol_smiles  class
0                         Cc1csc(N)c1C(N)=O     No
1  O=C(Nc1cccc(C(F)(F)F)c1)c1ccc([N+](=O)[O-])o1    Yes

Turning now to a further molecule:
Req: Could you tell me if the measured pEC50 of O=C(NCc1ccccn1)c1ccc([N+](=O)[O-])o1 reaches 7 or more?
Resp: No

----------
Listed compounds paired with reported pEC50
test system: Trypanosoma brucei brucei; assay: Trypanocidal activity against bloodstream form of Trypanosoma brucei brucei 427 after 72 hrs by Alamar blue assay; type: functional, organism-based; conditions: Trypanosoma brucei, 427, 72 h
Just the number, please; pEC50 means minus log10 of the concentration in mol/L.

Reference set, count: 6
>>> df
                                 mol_smiles  endpoint_result
0  COc1cc(NC(=O)c2ccc([N+](=O)[O-])o2)cc(C(F)(F)F)c1             7.58
1  O=C(Nc1cc(C(F)(F)F)cc(C(F)(F)F)c1)c1ccc([N+](=O)[O-])o1             6.89
2  CCc1cc(C(=O)NCCO)c(NC(=O)c2ccc([N+](=O)[O-])o2)s1             7.10
3  COc1ccc(NC(=O)c2ccc([N+](=O)[O-])o2)cc1C             7.42
4  CCc1cc(C(N)=O)c(NC(=O)c2ccccc2[N+](=O)[O-])s1             4.58
5  C=CCOc1ccc(NC(=O)c2ccc([N+](=O)[O-])o2)cc1C(F)(F)F             8.62

Req: pEC50 for O=C(NCc1ccccc1)c1ccc([N+](=O)[O-])o1 ?
Resp: 7.56

Req: pEC50 for CCc1cc(C(N)=O)c(NC(=O)c2ccc([N+](=O)[O-])o2)s1 ?
Resp: 7.76

Req: pEC50 for CCc1cc(C(=O)O)c(NC(=O)c2ccc([N+](=O)[O-])o2)s1 ?
Resp: 6.02

----------
test: Selectivity index, ratio of EC50 for human HeLa cells to EC50 for bloodstream form of Trypanosoma brucei brucei 427; format: toxicity, cell-based; details: read-out: Ratio EC50
Listed compounds paired with reported selectivity ratio

Reference set, count: 3
>>> print(df.to_string())
                                   compound  endpoint_result
0  CCOC(=O)c1cc(CC)sc1NC(=O)c1ccc([N+](=O)[O-])o1            > 640
1   O=C(Nc1ccc(Cl)cc1)c1ccc([N+](=O)[O-])o1             > 48
2  C=CCOc1ccc(N(CC=C)C(=O)c2ccc([N+](=O)[O-])o2)cc1C(F)(F)F              > 9

Req: selectivity ratio for CCc1cc(C(N)=O)c(NCc2ccc([N+](=O)[O-])o2)s1 ?
Resp: > 4

Req: selectivity ratio for O=C(NCc1ccccn1)c1ccc([N+](=O)[O-])o1 ?
Resp: > 68

Req: selectivity ratio for CCc1cc(C(N)=O)c(NC(=O)c2ccc([N+](=O)[O-])o2)s1 ?
Resp: > 1160
